Target: Cytochrome P450 3A4 (Homo sapiens)
Sequence (P08684 whole entry): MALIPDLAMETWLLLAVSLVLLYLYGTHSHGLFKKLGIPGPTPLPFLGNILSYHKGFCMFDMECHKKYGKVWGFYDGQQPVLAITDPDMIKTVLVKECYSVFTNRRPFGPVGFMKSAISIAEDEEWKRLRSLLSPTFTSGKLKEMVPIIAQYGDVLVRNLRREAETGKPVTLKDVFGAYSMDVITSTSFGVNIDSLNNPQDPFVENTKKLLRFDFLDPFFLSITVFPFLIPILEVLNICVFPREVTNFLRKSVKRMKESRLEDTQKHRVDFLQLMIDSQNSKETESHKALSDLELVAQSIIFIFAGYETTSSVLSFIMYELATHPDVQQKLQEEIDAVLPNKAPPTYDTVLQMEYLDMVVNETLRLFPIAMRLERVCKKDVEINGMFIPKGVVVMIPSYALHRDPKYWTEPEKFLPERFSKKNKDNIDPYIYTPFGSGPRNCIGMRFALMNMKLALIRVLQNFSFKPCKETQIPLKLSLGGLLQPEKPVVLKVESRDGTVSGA
Assay: Inhibition of CYP3A4 in human liver microsome incubated for 10 mins in the presence of NADPH by LC-MS/MS analysis
Assay type: ADME, microsomes
Overview of reported pIC50 across a group of compounds:
// pIC50 here means minus log10 of the molar concentration (mol/L)

Compound	Test System	pIC50
Fc1ccc(C2(Cn3cncn3)COC(c3ccc(-c4ccccc4F)cc3)=N2)cc1 (configuration not stated)	Cytochrome P450 3A4 (Homo sapiens)	4.83

# evaluate next
Return reported pIC50; argument: Fc1ccc(C2(Cn3cncn3)COC(c3ccc(-c4cccc(F)c4)cc3)=N2)cc1 (configuration not stated)
4.82
